Target under test: GABAA receptor α5 subtype with β2 and γ2 subunits (Homo sapiens, UniProt P18507+P31644)
Construct: expressed in transfected cells; host or cells: HEKT cell line, transient transfection with Fugene 6
Assay procedure: Competition binding assay with [3H]flunitrazepam
Experimental parameters: [3H]flunitrazepam, α5β2γ2, HEKT cells; read-out: GABAA RECEPTOR BINDING α5
pKi: −log10 of the molar value. Structures can show the parent of a compound that is named as a salt.
Value kind: pKi

I = CCCOc1cc2c(cn1)[nH]c1ccncc12 [Compound 2, hydrochloride]
II = CC(C)(C)OC(=O)c1cc2c(cn1)[nH]c1cnccc12 [Compound 3]
Query block: Problem: Given the entries I and II , determine which has the lower reported pKi. Lab log: write the label of the selected item as the result.
Result block: I

---

Target under test: GABAA receptor α3 subtype with β2 and γ2 subunits (Homo sapiens, UniProt P18507+P34903)
Construct: expressed in transfected cells; host or cells: HEKT cell line, transient transfection with Fugene 6
Assay procedure: Competition binding assay with [3H]flunitrazepam
Where a name gives a salt, the structure may show the parent alone.
Value kind: pKi
Scale: pKi equals -log10([C]), with [C] in mol/L.

Query block: Report value only: pKi, GABAA receptor α3 subtype with β2 and γ2 subunits (Homo sapiens, UniProt P18507+P34903), CCCOc1cc2c(cn1)[nH]c1cnccc12 [Compound 4, hydrochloride]
Result block: 8.83

---

Target under test: GABAA receptor α2 subtype with β2 and γ2 subunits (Homo sapiens, UniProt P18507+P47869)
Construct: expressed in transfected cells; host or cells: HEKT cell line, transient transfection with Fugene 6
Assay procedure: Competition binding assay with [3H]flunitrazepam
Experimental parameters: [3H]flunitrazepam, α2β2γ2, HEKT cells; read-out: GABAA RECEPTOR BINDING α2
Counter-ions that a name gives are not always drawn.
Value kind: Ki (nM)

A = CCCOc1cc2c(cn1)[nH]c1ccncc12 [Compound 2, hydrochloride]
B = CC(C)(C)OC(=O)c1cc2c(cn1)[nH]c1cnccc12
Query block: Please choose the item with the lower Ki value from this pair: A and B In your reply, give the label of the chosen option.
Result block: A
(A: 0.33 nM, B: 2.5 nM)

---

Target under test: Dopamine receptor D2 (Homo sapiens, UniProt P14416)
Assay procedure: PDSP secondary radioligand binding assay
Description: Primary and secondary radioligand binding assays are performed. In general, the primary assay is run at very high ligand (compound) concentration as a broad screen to determine whether a compound binds to a particular receptor. If greater than 50% inhibition at 10 μM (high concentration of compound) at a particular receptor is determined, a secondary assay is performed on that receptor. Data from the secondary assay is the binding affinity (Ki value). […]
Structures can show the parent of a compound that is named as a salt.
The entries below are paired with their reported Ki.

[
  {
    "Molecule": "CCCOc1cc2c(cn1)[nH]c1cnccc12 [Compound 4, hydrochloride]",
    "Ki": "> 10 µM"
  }
]

Continue with the molecule presented below.
Query block: Supply measured Ki of CCCOc1cc2c(cn1)[nH]c1ccncc12 [Compound 2, hydrochloride] in your reply.
Result block: > 10 µM

---

Target under test: Dopamine receptor D4 (Homo sapiens, UniProt P21917)
Counter-ions that a name gives are not always drawn.
Value kind: Ki (µM)
Write it as a number; the unit µM goes unstated.

Query block: Quick one: give measured Ki for CCCOc1cc2c(cn1)[nH]c1ccncc12 [Compound 2, hydrochloride]
Result block: 7.5

Value source: patent US8268854B2
